test: Henry solubility constant Hcp at 298.15 K (mol/(m3 Pa)); settings: reference: Park et al. (1982)
Collected Henry solubility constant Hcp values appear next to each entry.
Give only the figure.

Field: example entries. Status: answers known.
FC(F)(Cl)Cl
2.9e-05
FC1(F)C(F)(F)C(F)(F)C1(F)F
1.2e-06
FC(F)(F)C(F)(F)F
5.3e-07
FC(F)(F)Cl
7.8e-06
FS(F)(F)(F)(F)F [sulfur hexafluoride]
2.4e-06
[Ar]
1.4e-05

Problem: Which value of Henry solubility constant Hcp has been reported for FC(F)(F)F in the records?
Solution: 2.1e-06

* * *

Readings of Henry solubility constant Hcp for the listed molecules
test: Henry solubility constant Hcp at 298.15 K (mol/(m3 Pa)); conditions: reference: Ioffe et al. (1984)
Please give the numeric answer without any surrounding text.

CCC(=O)OC [methyl propanoate]
0.052
CCCCOC(C)=O [butyl ethanoate]
0.035
CCCC(=O)OC [methyl butanoate]
0.036
CC(C)=O
0.2

Attention now turns to another entry.
Problem: Which Henry solubility constant Hcp reading was recorded for the molecule COC(C)=O [methyl ethanoate] ?
Solution: 0.077

* * *

experiment: Henry solubility constant Hcp at 298.15 K (mol/(m3 Pa)); conditions: reference: Gupta et al. (2000)
endpoint: Henry solubility constant Hcp
Please give only the number in your answer, with no unit.

CCCCCCO
0.39
CCCCCO
0.95
CCO
1.8

Now take the following molecule into account.
Problem: For the molecule CCCO , what Henry solubility constant Hcp is on record?
Solution: 1.2

* * *

experiment: Henry solubility constant Hcp at 310 K (mol/(m3 Pa)); conditions: reference: Lerman et al. (1983)
Henry solubility constant Hcp at 310 K listing for selected compounds.
// no unit, no text: just the number

// solved cases for Henry solubility constant Hcp at 310 K follow
FC(F)(F)C(Cl)Br (centres undefined)
0.00033
COC(F)(F)C(Cl)Cl
0.0017

Problem: Param item = FC(F)OC(Cl)C(F)(F)F (centres undefined) ; retrieve measured Henry solubility constant Hcp at 310 K.
Solution: 0.00024

Problem: And for FC(F)OC(F)(F)C(F)Cl (centres undefined) ?
Solution: 0.00029

* * *

experiment: Henry solubility constant Hcp at 298.15 K (mol/(m3 Pa)); conditions: reference: Snider and Dawson (1985)
endpoint: Henry solubility constant Hcp
Returns: the value as a bare number; no unit string appended.

Completed entries (count: 3):
CC(C)CO [2-methyl-1-propanol]
1
CC(C)=O [propanone]
0.25
CCO [ethanol]
1.9

Okay, next one:
Problem: Given CC(C)O [2-propanol] , state its recorded Henry solubility constant Hcp.
Solution: 1.2

* * *

assay: Henry solubility constant Hcp at 298.15 K (mol/(m3 Pa)); details: reference: Bunsen (1855a)
endpoint: Henry solubility constant Hcp

As a guide, the following entries are already answered.
O=O [oxygen]
1.2e-05
[C-]#[O+] [carbon monoxide]
9.5e-06
O=C=O [carbon dioxide]
0.00034

Let us examine a further case.
Problem: # query: Henry solubility constant Hcp of entry [HH] [hydrogen]
Solution: 8.5e-06

* * *

Known Henry solubility constant Hcp of a selection of molecules
test: Henry solubility constant Hcp at 298.15 K (mol/(m3 Pa)); conditions: reference: Kutsuna et al. (2005)
Just the number, please, no unit attached.

Below are worked cases with known answers.
CCOC(C)=O [ethyl ethanoate]
0.059
CCCOC=O [propyl methanoate]
0.026
CCOC=O [ethyl methanoate]
0.034
CCOC(=O)C(F)(F)F [trifluoroethanoic acid, ethyl ester]
0.00089

Please turn your attention to the following entry.
Problem: Fill blank: measured Henry solubility constant Hcp of the molecule O=COCC(F)(F)F [2,2,2-trifluoroethyl methanoate] is ____.
Solution: 0.0054

* * *

test: Henry solubility constant Hcp at 298.15 K (mol/(m3 Pa)); conditions: reference: Brockbank et al. (2013)
endpoint: Henry solubility constant Hcp
Could you respond with only the numeric value?

Would you please look over these solved cases?
Cc1ccc(Cl)cc1Cl
0.0027
COc1ccccc1
0.029
Clc1cccc(Cl)c1Cl
0.0063

# context switch: different compound, same Henry solubility constant Hcp
Problem: # input compound: Cc1ccc(Br)cc1 ; wanted: its Henry solubility constant Hcp
Solution: 0.0034

* * *

Entries annotated with measured Henry solubility constant Hcp
assay: Henry solubility constant Hcp at 298.15 K (mol/(m3 Pa)); conditions: reference: Crovetto et al. (1982)
Please respond with just the number, no unit label.

Below: 2 compounds and their reported Henry solubility constant Hcp.
[Ar]
1.4e-05
[Kr]
2.5e-05

Problem: Suppose we examine the compound [Ne] ; what Henry solubility constant Hcp value has been reported?
Solution: 4.4e-06

Problem: Input [Xe]
Solution: 4.2e-05

* * *

assay: Henry solubility constant Hcp at 298.15 K (mol/(m3 Pa)); settings: reference: Jönsson et al. (1982)
The entries below are paired with their reported Henry solubility constant Hcp.
Give the value as a plain number.

These solved cases illustrate the format of a correct answer.
CCCCCCCC
2.9e-06
CCCCCCC
4.2e-06
CCCCC
8.2e-06
CCCCCCCCC
1.8e-06

Please examine the following record next.
Problem: // lookup Henry solubility constant Hcp for CCCCCC
Solution: 5.9e-06

* * *

Each entry below carries its reported Henry solubility constant Hcp.
assay: Henry solubility constant Hcp at 298.15 K (mol/(m3 Pa)); conditions: reference: Christie and Crisp (1967)
No unit in the answer, please; the number alone is enough.

CCCCN [1-butanamine]
0.56
CCN [ethanamine]
0.8
CNC [dimethylamine]
0.56

Problem: Please report the recorded Henry solubility constant Hcp for CCCCCN [1-pentanamine] .
Solution: 0.4

Problem: Okay, and CCCCCCN [1-hexanamine] ?
Solution: 0.37

Problem: Quick one: CN [methanamine]
Solution: 0.89

* * *

assay: Henry solubility constant Hcp at 295 K (mol/(m3 Pa)); details: reference: de Wolf and Lieder (1998)
// Henry solubility constant Hcp at 295 K lookup, one value per entry
API note: the answer field is a bare number with no unit suffix.

Clc1cccc(Cl)c1
0.0037

// moving on: another record for Henry solubility constant Hcp at 295 K
Problem: Which Henry solubility constant Hcp at 295 K is reported for this compound? Cc1ccccc1
Solution: 0.002

* * *

Henry solubility constant Hcp listing for selected compounds.
test: Henry solubility constant Hcp at 298.15 K (mol/(m3 Pa)); conditions: reference: Straver and de Loos (2005)

The examples below pair each entry with its known result.
CC(C)=O
0.24
CCCC(C)=O
0.086
CCCO
1.5
CC/C=C\CCC=O [(Z)-4-heptenal]
0.088
CCCCC(C)=O
0.11

Problem: Consider the compound shown here: CSC [dimethyl sulfide] What is its recorded Henry solubility constant Hcp?
Solution: 0.0049

Problem: Another compound to look at: CC(=O)C(C)O (stereo not drawn) [3-hydroxy-2-butanone]
Solution: 0.57

Problem: CCO , same question.
Solution: 1.9

* * *

test: Henry solubility constant Hcp at 298.15 K (mol/(m3 Pa)); settings: reference: Haimi et al. (2006)
endpoint: Henry solubility constant Hcp
Answer using only a numeral; do not append any unit.

Here is how some compounds turned out for Henry solubility constant Hcp.
CCC(C)(C)OC [2-methoxy-2-methylbutane]
0.01
CCOC(C)(C)C [ethyl tert-butyl ether]
0.0064
CCCS [1-propanethiol]
0.0018
CCCCS [1-butanethiol]
0.0015
CCOC(C)(C)CC [2-ethoxy-2-methylbutane]
0.0048

Problem: Query (compound): CCCCCC(C)(C)OC [2-methoxy-2-methylheptane] ; field requested: Henry solubility constant Hcp
Solution: 0.0019

Problem: Try this compound next: c1ccsc1 [thiophene]
Solution: 0.0041

Problem: Next compound up: CC(C)S [2-propanethiol]
Solution: 0.0013

Problem: Ok, now CCOC(C)(C)CC(C)(C)C [2-ethoxy-2,4,4-trimethylpentane]
Solution: 0.00077

* * *

assay: Henry solubility constant Hcp at 298.15 K (mol/(m3 Pa)); conditions: reference: Hartkopf and Karger (1973)
endpoint: Henry solubility constant Hcp
Just the number, please.

Example entries begin here.
ClC(Cl)(Cl)Cl
0.00037
CCOC=O [ethyl methanoate]
0.0019
c1ccccc1
0.0021
Clc1ccccc1
0.0028
CCc1ccccc1
0.0016
ClCCl
0.0042
CCCOCCC
0.0022
Fc1ccccc1
0.0015

# evaluate next
Problem: Entry under review: Cc1ccccc1 . Reported Henry solubility constant Hcp?
Solution: 0.002

* * *

Quick reference for Henry solubility constant Hcp at 293 K among some compounds
experiment: Henry solubility constant Hcp at 293 K (mol/(m3 Pa)); settings: reference: Sheikheldin et al. (2001)
Number only, please.

Oc1ccccc1Cl [2-hydroxychlorobenzene]
1.5

Problem: Given Cc1cccc(O)c1C [1-hydroxy-2,3-dimethylbenzene] , state its recorded Henry solubility constant Hcp at 293 K.
Solution: 9.3

Problem: What do we get for Cc1ccc(O)c(C)c1 [1-hydroxy-2,4-dimethylbenzene] ?
Solution: 6.6

Problem: Query Oc1ccc(Cl)cc1Cl next
Solution: 3.4
